Tested on: M010B (Human glioma)
MEASUREMENT DESCRIPTION: Cytotoxicity testing (MTS) on M010B
Format: cell-based
ENDPOINT LABEL: Fraction of cells that survive at the highest drug concentrations (Ibot)

INSERT INTO results (smiles_code, recorded_number) VALUES
  ('C=CCOc1c(OC)c(OC)cc2c1-c1ccc(OC)c(=O)cc1[C@@H](NC(C)=O)CC2', 0.299),
  ('COc1cc2c(c(OCc3cccc(Cl)c3)c1OC)-c1ccc(OC)c(=O)cc1[C@@H](NC(C)=O)CC2', 0.328),
  ('CCOc1cc2c(c(OC)c1OC)-c1ccc(SC)c(=O)cc1[C@@H](NC(C)=O)CC2', 0.327),
  ('COc1cc2c(c(OCc3ccccc3)c1OC)-c1ccc(OC)c(=O)cc1[C@@H](NC(C)=O)CC2', 0.250),
  ('CCCOc1c(OC)c(OC)cc2c1-c1ccc(OC)c(=O)cc1[C@@H](NC(C)=O)CC2', 0.181),
  ('COc1cc2c(c(OC(=O)C(C)C)c1OC)-c1ccc(OC)c(=O)cc1[C@@H](NC(C)=O)CC2', 0.258),
  ('CCOc1c(OC)c(OC)cc2c1-c1ccc(OC)c(=O)cc1[C@@H](NC(C)=O)CC2', 0.108),
  ('COc1cc2c(c(OCc3ccc(Cl)cc3)c1OC)-c1ccc(OC)c(=O)cc1[C@@H](NC(C)=O)CC2', 0.382);
